- test-system: NR2B receptor (Rattus norvegicus (Rat), UniProt P35439+Q00960)
- Sequence (Q00960 27-1482, other chains not shown): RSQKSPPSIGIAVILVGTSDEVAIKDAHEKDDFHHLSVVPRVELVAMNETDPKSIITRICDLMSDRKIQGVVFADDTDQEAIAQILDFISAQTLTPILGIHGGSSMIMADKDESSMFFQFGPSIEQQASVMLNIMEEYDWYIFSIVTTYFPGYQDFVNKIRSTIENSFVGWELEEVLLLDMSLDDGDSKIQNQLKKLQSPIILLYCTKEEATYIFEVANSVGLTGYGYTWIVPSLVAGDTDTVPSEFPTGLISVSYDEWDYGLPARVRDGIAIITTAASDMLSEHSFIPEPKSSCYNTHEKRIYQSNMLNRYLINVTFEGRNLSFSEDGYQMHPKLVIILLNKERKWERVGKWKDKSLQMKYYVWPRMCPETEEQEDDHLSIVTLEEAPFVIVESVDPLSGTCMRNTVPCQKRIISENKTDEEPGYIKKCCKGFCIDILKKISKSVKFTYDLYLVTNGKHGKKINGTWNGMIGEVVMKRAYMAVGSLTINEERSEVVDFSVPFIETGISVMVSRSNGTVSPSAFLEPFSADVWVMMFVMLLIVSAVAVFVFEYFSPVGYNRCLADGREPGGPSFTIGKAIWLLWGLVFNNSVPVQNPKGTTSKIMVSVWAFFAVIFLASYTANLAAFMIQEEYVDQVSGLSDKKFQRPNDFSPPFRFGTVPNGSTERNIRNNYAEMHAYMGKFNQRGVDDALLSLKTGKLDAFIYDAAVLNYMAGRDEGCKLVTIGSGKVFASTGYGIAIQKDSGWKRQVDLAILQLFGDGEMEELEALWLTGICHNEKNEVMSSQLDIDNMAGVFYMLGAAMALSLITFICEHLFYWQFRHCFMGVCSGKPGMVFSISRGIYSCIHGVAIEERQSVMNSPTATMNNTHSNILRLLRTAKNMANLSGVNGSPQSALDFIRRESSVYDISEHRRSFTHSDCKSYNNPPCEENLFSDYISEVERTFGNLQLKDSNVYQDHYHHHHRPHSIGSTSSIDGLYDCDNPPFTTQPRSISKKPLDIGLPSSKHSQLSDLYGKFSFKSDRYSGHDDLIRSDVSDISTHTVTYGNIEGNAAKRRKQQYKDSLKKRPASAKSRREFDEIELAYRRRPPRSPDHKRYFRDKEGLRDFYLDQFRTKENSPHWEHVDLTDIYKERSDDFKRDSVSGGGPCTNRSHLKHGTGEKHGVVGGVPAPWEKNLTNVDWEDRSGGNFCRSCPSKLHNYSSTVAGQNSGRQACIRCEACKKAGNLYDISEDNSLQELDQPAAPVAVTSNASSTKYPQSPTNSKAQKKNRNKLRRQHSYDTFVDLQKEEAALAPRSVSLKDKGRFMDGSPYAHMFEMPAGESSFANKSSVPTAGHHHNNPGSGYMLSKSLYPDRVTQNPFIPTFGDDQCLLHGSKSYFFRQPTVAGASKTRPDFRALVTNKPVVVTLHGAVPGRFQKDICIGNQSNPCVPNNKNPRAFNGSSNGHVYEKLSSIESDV
- assay-notes: [3H] (E)-N1-(2-methoxybenzyl)-cinnamidine radioligand binding, rat brain membranes
- recorded-conditions: rat brain membranes, [3H] (E)-N1-(2-methoxybenzyl)-cinnamidine; read-out: Ki at the NR2B receptor high affinity site
property: Ki
// return the numeric value with its unit appended

Ask: Return the recorded Ki value; entry: COc1ccccc1CNC(=N)/C=C/c1ccccc1 [(E)-N1-(2-methoxybenzyl)-cinnamidine, reference compound]
Reply: 0.18 nM

###

- Tested on: NMDA receptor
- assay-notes: [3H] MK-801 radioligand binding, rat brain membranes
- recorded-conditions: 2 nM [3H] MK-801
property: partial effect on [3H] MK-801 binding
// return the numeric value with its unit appended

Ask: Return the recorded partial effect on [3H] MK-801 binding value; entry: O=C(OCc1ccc(F)cc1)N1CC[C@H](CNc2nccn3cnnc23)C(F)(F)C1 [Compound E1-1.4]
Reply: 32%

Ask: Return the recorded partial effect on [3H] MK-801 binding value; entry: CCc1ccc(COC(=O)N2CC[C@H](CNc3nccn4cnnc34)C(F)(F)C2)cc1 [Compound E1-1.5]
Reply: 48%

Ask: Return the recorded partial effect on [3H] MK-801 binding value; entry: Cc1ccc(COC(=O)N2CC[C@H](CNc3ncc4cn[nH]c4n3)C(F)(F)C2)cc1 [Compound E1-8.2]
Reply: 33%

Ask: Return the recorded partial effect on [3H] MK-801 binding value; entry: Cc1ccc(COC(=O)N2CC[C@H](CNc3cnc(C)cn3)C(F)(F)C2)cc1 [Compound E1-21.26]
Reply: 41%

Ask: Return the recorded partial effect on [3H] MK-801 binding value; entry: O=C(OCc1ccc(Cl)cc1)N1CC[C@H](CNc2nccn3cnnc23)C(F)(F)C1 [Compound E1-1.3]
Reply: 41%

Ask: Return the recorded partial effect on [3H] MK-801 binding value; entry: Cc1ccc(COC(=O)N2CC[C@H](CNc3nc4ccccn4n3)C(F)(F)C2)cc1 [Compound E1-9.2]
Reply: 34%

Ask: Return the recorded partial effect on [3H] MK-801 binding value; entry: Cc1ccc(COC(=O)N2CC[C@H](CNc3cnccn3)C(F)(F)C2)cc1 [Compound E1-21.2]
Reply: 49%

Ask: Return the recorded partial effect on [3H] MK-801 binding value; entry: Cc1ccc(COC(=O)N2CC[C@@H](CNc3nccn4cnnc34)C(F)(F)C2)cc1 [Compound E2-1.2]
Reply: 36%

Please examine the following record next.
Ask: Return the recorded partial effect on [3H] MK-801 binding value; entry: Cc1ccc(COC(=O)N2CC[C@H](CNc3nccn4cnnc34)C(F)(F)C2)cc1 [Compound E1-1.2]
Reply: 40%

###

- test-system: CYP2D6 (Homo sapiens (Human), UniProt P10635)
- Sequence (P10635 whole entry): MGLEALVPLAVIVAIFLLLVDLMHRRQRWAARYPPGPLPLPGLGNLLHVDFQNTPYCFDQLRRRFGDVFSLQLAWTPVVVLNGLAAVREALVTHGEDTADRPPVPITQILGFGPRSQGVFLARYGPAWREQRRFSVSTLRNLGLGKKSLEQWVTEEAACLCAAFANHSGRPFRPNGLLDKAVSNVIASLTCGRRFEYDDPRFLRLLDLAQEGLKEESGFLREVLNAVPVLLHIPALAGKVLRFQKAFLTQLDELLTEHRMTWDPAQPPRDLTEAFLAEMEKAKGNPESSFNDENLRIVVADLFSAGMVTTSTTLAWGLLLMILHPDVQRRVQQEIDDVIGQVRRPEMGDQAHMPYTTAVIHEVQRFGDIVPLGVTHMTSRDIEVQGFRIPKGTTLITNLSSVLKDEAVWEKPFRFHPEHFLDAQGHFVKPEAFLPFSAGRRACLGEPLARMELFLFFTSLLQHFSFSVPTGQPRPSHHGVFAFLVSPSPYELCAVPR
- assay-notes: CYP P450 enzyme inhibition, pooled human liver microsome
- Type: in vitro ADME
- recorded-conditions: 10 μM, pooled HLM, dextromethorphan 5 μM
I'd appreciate it if you could supply CYP2D6 @ 10 μM (%) values for the items below.
Answers are plain numbers, in %.

Record excerpt, results attached:
Ask: Return the recorded CYP2D6 @ 10 μM (%) value; entry: Cc1ccc(COC(=O)N2CC[C@H](CNc3nccn4cnnc34)C(F)(F)C2)cc1 [Compound E1-1.2]
Reply: 14

Ask: Return the recorded CYP2D6 @ 10 μM (%) value; entry: O=C(OCc1ccc(F)cc1)N1CC[C@H](CNc2nccn3cnnc23)C(F)(F)C1 [Compound E1-1.4]
Reply: 19

Ask: Return the recorded CYP2D6 @ 10 μM (%) value; entry: Cc1ccc(COC(=O)N2CC[C@H](CNc3ncc4cn[nH]c4n3)C(F)(F)C2)cc1 [Compound E1-8.2]
Reply: 83

Give CYP2D6 @ 10 μM (%) for each of the items listed below.
1. Cc1ccc(COC(=O)N2CC[C@H](CNc3cnccn3)C(F)(F)C2)cc1 [Compound E1-21.2]
2. O=C(OCc1ccc(Cl)cc1)N1CC[C@H](CNc2nccn3cnnc23)C(F)(F)C1 [Compound E1-1.3]
3. FC(F)(F)c1ccc(C(F)(F)CN2CCC(Nc3ncnc4[nH]ncc34)CC2)cc1 [LX-1, reference compound]

Reply:
[97, 37, 93]

Give CYP2D6 @ 10 μM (%) for each of the items listed below.
1. Cc1ccc(COC(=O)N2CC[C@H](CNc3nc4ccccn4n3)C(F)(F)C2)cc1 [Compound E1-9.2]
2. Cc1ccc(COC(=O)N2CC[C@H](CNc3cnc(C)cn3)C(F)(F)C2)cc1 [Compound E1-21.26]
3. Cc1ccc(COC(=O)N2CC[C@H](CNc3cncc4nncn34)C(F)(F)C2)cc1 [Compound E1-2.2]

Reply:
14
32
18
